Target: T1, PUF4 RNA-binding domain (Saccharomyces cerevisiae, UniProt P25339 537-888)
T1 sequence: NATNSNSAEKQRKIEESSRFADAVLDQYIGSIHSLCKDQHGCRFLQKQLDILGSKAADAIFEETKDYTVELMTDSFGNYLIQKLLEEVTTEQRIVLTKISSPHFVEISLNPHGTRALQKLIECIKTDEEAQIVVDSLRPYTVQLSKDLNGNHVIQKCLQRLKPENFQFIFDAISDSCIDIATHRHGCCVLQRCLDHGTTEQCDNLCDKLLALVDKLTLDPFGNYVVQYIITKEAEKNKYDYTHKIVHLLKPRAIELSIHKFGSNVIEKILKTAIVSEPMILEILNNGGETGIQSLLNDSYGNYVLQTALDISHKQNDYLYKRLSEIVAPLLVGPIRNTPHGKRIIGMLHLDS
Experiment: Mg; RNA-MaP; 20 mM Na-HEPES pH 7.4, 30 mM KOAc, 0.75 mM MgCl2, 0.1% Tween-20, 5% glycerol, 0.1 mg/mL BSA, 2 mM DTT; 25 C; 0.0125-409.6 nM protein
Details: tags: N-His6-TEV cleaved; C-SNAP kept, Cy3B-labelled; label: tethered on chip by stalled RNA polymerase
pKd: −log10 of the molar value.
The threshold is inclusive: pKd of exactly 7 counts as 1 (yes); values below receive 0 (no).

### Prompt Is pKd for Ic_S2_P5E.1_K5.1_C5.1_H5.1_A5.1_[T5A]_[A7C]_F5.1_[T8C]_[T9G]_[A10C]_T5.1 (ssRNA) RNA: UUUGAUUAAUAUGAUAUCGUUCUUUCUUGUAAUCCGCUUCUUUCUCGAUAUCAUAUUAAUCUUU at or above 7?
### Response 0 (no)

### Prompt State whether the measured pKd reaches 7, counting equality as reaching it, for Id_ii_S4_P4E.3_K4.2_C4.2_[T-1G]_H4.2_A4.1_F4.1_T4.2_[G10A] (ssRNA) RNA: UUUGACAACUGAUCGUUCUUUCUCGUAUAUAUUAAUUUCUUUCUCGAUCAGUUGUCUUU
### Response 1 (yes)

### Prompt Hi team, for ACAAACAGUAUCUUAACAAAC (ssRNA) [Ib_S3_P4E.1_K4.1_C4.1_H4.1_[T1A]_A4.1_[A6C]_F4.1_T4.1] , is the recorded pKd at or above 7?
### Response 0 (no)

### Prompt For this binder, is measured pKd 7 or higher? Ib_S2_P5E.1_K5.1_C5.1_H5.1_A5.1_[A7T]_F5.1_[T8A]_T5.1 (ssRNA) RNA: UUUGAUUAAUAUGAUAUCGUUCUUUCUUGUAUUUAUAUUCUUUCUCGAUAUCAUAUUAAUCUUU
### Response 1 (yes)

### Prompt Given the entry Ia_S4_P4E.1_K4.1_C4.1_H4.1_A4.1_[T5C]_F4.1_T4.1 (ssRNA) RNA: UUUGACAACUGAUCGUUCUUUCUUGUACAUUAUUCUUUCUCGAUCAGUUGUCUUU , answer whether its pKd meets or surpasses 7.
### Response 1 (yes)

### Prompt Quick check: does ACAAACUGAAUACUAACAAAC (ssRNA) [Ib_S3_P4E.1_K4.1_C4.1_H4.1_[T3A]_A4.1_[T7C]_F4.1_T4.1] have pKd greater than or equal to 7?
### Response 0 (no)

### Prompt Please tell me: is the binder UCUCUUUGUUUUAUGAUCUCUU (ssRNA) [Ib_S1_P5E.1_K5.1_C5.1_H5.1_[A4T]_A5.1_F5.1_[T9G]_T5.1] at or over 7 in terms of pKd?
### Response 0 (no)

### Prompt Confirm if pKd reported for the binder Ic_S2_P5E.1_K5.1_C5.1_H5.1_A5.1_[T6A]_[A7C]_F5.1_[T9A]_[A10C]_T5.1 (ssRNA) RNA: UUUGAUUAAUAUGAUAUCGUUCUUUCUUGUAUACUACUUCUUUCUCGAUAUCAUAUUAAUCUUU is 7 or above.
### Response 1 (yes)

### Prompt Please indicate if the recorded pKd for UCUCUUUGUAUCGCCAUCUCUU (ssRNA) [Ic_S1_P5E.1_K5.1_C5.1_H5.1_A5.1_[T6C]_[A7G]_F5.1_[T8C]_[T9C]_T5.1] meets or exceeds 7.
### Response 0 (no)

### Prompt Is reported pKd greater than or equal to 7 here: UCUCUUUGUACGAAUGUCUCUU (ssRNA) [Ic_S1_P5E.1_K5.1_C5.1_H5.1_A5.1_[T5C]_[T6G]_F5.1_[T8A]_[A10G]_T5.1]
### Response 0 (no)

### Prompt Is pKd at least 7? Consider Ie_S2_P5E.1_K5.1_C5.1_H5.1_[+4TC]_A5.1_F5.1_T5.1 (ssRNA) RNA: UUUGAUUAAUAUGAUAUCGUUCUUUCUUGUAUCUUAUUAUUCUUUCUCGAUAUCAUAUUAAUCUUU
### Response 1 (yes)

### Prompt hey, is pKd for this one >= 7? UCUCUUCUUAUAUUAUUAUUUCUCUU (ssRNA) [Id_ii_S1_P5E.3_K5.2_C5.2_H5.2_A5.1_F5.1_T5.2_[A12T]]
### Response 0 (no)
